# Test system: SK-BR-3
# PROTOCOL DETAILS: Cytotoxicity against human SKBR3 cells assessed as cell viability at 100 uM after 72 hrs by MTS assay
# Assay type: functional
# CONDITION CONTEXT: SK-BR-3, 72 h, read-out: Activity
OUTCOME MEASURE: viability at 100 µM (%)
One number for each entry, in %.

// input: 5 compounds below; output: viability at 100 µM for each
1. CCCCCCCC/C=C\CCCCCCCCOC[C@@H]1COCS(=O)(=O)N1Cc1ccccc1
2. O=S1(=O)COC[C@@H](COCc2ccccc2)N1
3. O=S1(=O)COC[C@H](COCc2ccccc2)N1
4. COc1cccc(COC[C@@H]2COCS(=O)(=O)N2Cc2ccccc2)c1
5. CCCCCCCC/C=C\CCCCCCCCOC[C@H]1COCS(=O)(=O)N1Cc1ccccc1

result:
100
16
22
89
96
